# Assay procedure: BTK FAC plasma stability assay, mouse plasma
# Format: in vitro ADME
# Measurement context: 24 h
Values of % Release of degrader after 24 h mouse strictly less than 2% map to yes (1), and values of at least 2% map to no (0).

>>> answer_label("CCCCCCCCCCCN(C(=O)CCCCCCCCCC(=O)O)C(CCC(=O)NCCOCCOCCOCCOCCOCCOCCOCCOCCOCCOCCOCCOCCC(=O)N[C@@H](C)CC(=O)OC(C)(C)c1ccc(C(=O)Nc2cc(F)cc(-c3ncnc4[nH]c(-c5ccc(CCN6CCC7(CC6)CCN(C(=O)c6ccc(OC)c(N8CCC(=O)NC8=O)c6)CC7)cc5)cc34)c2C)c(F)c1)C(=O)O (stereo partly drawn)")
"yes (1)"
>>> answer_label("CCCCCCCCCCCN(C(=O)CCCCCCCCCC(=O)O)[C@@H](CCC(=O)N(CCNC(=O)CCOCCOCCOCCOCCOCCOCCOCCOCCOCCOCCOCCOC)CC(=O)OC(C)(C)c1ccc(C(=O)Nc2cc(F)cc(-c3ncnc4[nH]c(-c5ccc(CCN6CCC7(CC6)CCN(C(=O)c6ccc(OC)c(N8CCC(=O)NC8=O)c6)CC7)cc5)cc34)c2C)c(F)c1)C(=O)O")
"no (0)"
>>> answer_label("CCCCCCCCCCCN(C(=O)CCCCCCCCCC(=O)O)C(CCC(=O)NCCOCCOCCOCCOCCOCCOCCOCCOCCOCCOCCOCCOCCC(=O)NCc1ccc(CC(=O)OC(C)(C)c2ccc(C(=O)Nc3cc(F)cc(-c4ncnc5[nH]c(-c6ccc(CCN7CCC8(CC7)CCN(C(=O)c7ccc(OC)c(N9CCC(=O)NC9=O)c7)CC8)cc6)cc45)c3C)c(F)c2)cc1)C(=O)O (stereo not drawn)")
"no (0)"
>>> answer_label("CCCCCCCCCCCN(C(=O)CCCCCCCCCC(=O)O)C(CCC(=O)NCCOCCOCCOCCOCCOCCOCCOCCOCCOCCOCCOCCOCCC(=O)N[C@H](C)C(=O)OC(C)(C)c1ccc(C(=O)Nc2cc(F)cc(-c3ncnc4[nH]c(-c5ccc(CCN6CCC7(CC6)CCN(C(=O)c6ccc(OC)c(N8CCC(=O)NC8=O)c6)CC7)cc5)cc34)c2C)c(F)c1)C(=O)O (stereo partly drawn)")
"no (0)"
>>> answer_label("COCCOCCOCCOCCOCCOCCOCCOCCOCCOCCOCCOCCC(=O)NCC(=O)OC(C)(C)c1ccc(C(=O)Nc2cc(F)cc(-c3ncnc4[nH]c(-c5ccc(CCN6CCC7(CC6)CCN(C(=O)c6ccc(OC)c(N8CCC(=O)NC8=O)c6)CC7)cc5)cc34)c2C)c(F)c1")
"no (0)"
>>> answer_label("COc1ccc(C(=O)N2CCC3(CCN(CCc4ccc(-c5cc6c(-c7cc(F)cc(NC(=O)c8ccc(C(C)(C)OC(=O)CNC(=O)CCOCCOCCOCCOCCOCCOCCOCCOCCOCCOCCOCCOCCNC(C)=O)cc8F)c7C)ncnc6[nH]5)cc4)CC3)CC2)cc1N1CCC(=O)NC1=O")
"no (0)"
>>> answer_label("CCCCCCCCCCCN(C(=O)CCCCCCCCCC(=O)O)C(CCC(=O)NCCOCCOCCOCCOCCOCCOCCOCCOCCOCCOCCOCCOCCC(=O)N1CCC(F)(C(=O)OC(C)(C)c2ccc(C(=O)Nc3cc(F)cc(-c4ncnc5[nH]c(-c6ccc(CCN7CCC8(CC7)CCN(C(=O)c7ccc(OC)c(N9CCC(=O)NC9=O)c7)CC8)cc6)cc45)c3C)c(F)c2)CC1)C(=O)O (stereo not drawn)")
"no (0)"
>>> answer_label("CCCCCCCCCCCN(C(=O)CCCCCCCCCC(=O)O)C(CCC(=O)NCCOCCOCCOCCOCCOCCOCCOCCOCCOCCOCCOCCOCCC(=O)N1CCC(CC(=O)OC(C)(C)c2ccc(C(=O)Nc3cc(F)cc(-c4ncnc5[nH]c(-c6ccc(CCN7CCC8(CC7)CCN(C(=O)c7ccc(OC)c(N9CCC(=O)NC9=O)c7)CC8)cc6)cc45)c3C)c(F)c2)CC1)C(=O)O (stereo not drawn)")
"yes (1)"
>>> answer_label("CCCCCCCCCCCN(C(=O)CCCCCCCCCC(=O)O)[C@@H](CCC(=O)NCC(=O)OC(C)(C)c1ccc(C(=O)Nc2cc(F)cc(-c3ncnc4[nH]c(-c5ccc(CCN6CCC7(CC6)CCN(C(=O)c6ccc(OC)c(N8CCC(=O)NC8=O)c6)CC7)cc5)cc34)c2C)c(F)c1)C(=O)O")
"no (0)"
>>> answer_label("CCCCCCCCCCCN(C(=O)CCCCCCCCCC(=O)O)C(CCC(=O)NCCOCCOCCOCCOCCOCCOCCOCCOCCOCCOCCOCCOCCC(=O)NCc1ccc(C(=O)OC(C)(C)c2ccc(C(=O)Nc3cc(F)cc(-c4ncnc5[nH]c(-c6ccc(CCN7CCC8(CC7)CCN(C(=O)c7ccc(OC)c(N9CCC(=O)NC9=O)c7)CC8)cc6)cc45)c3C)c(F)c2)cn1)C(=O)O (stereo not drawn)")
"no (0)"
>>> answer_label("CCCCCCCCCCCN(C(=O)CCCCCCCCCC(=O)O)C(CCC(=O)NCCOCCOCCOCCOCCOCCOCCOCCOCCOCCOCCOCCOCCC(=O)NCc1ccc(C(=O)OC(C)(C)c2ccc(C(=O)Nc3cc(F)cc(-c4ncnc5[nH]c(-c6ccc(CCN7CCC8(CC7)CCN(C(=O)c7ccc(OC)c(N9CCC(=O)NC9=O)c7)CC8)cc6)cc45)c3C)c(F)c2)cc1)C(=O)O (stereo not drawn)")
"no (0)"
>>> answer_label("CCCCCCCCCCCN(C(=O)CCCCCCCCCC(=O)O)C(CCC(=O)NCCOCCOCCOCCOCCOCCOCCOCCOCCOCCOCCOCCOCCOCCOCCOCCOCCOCCOCCOCCOCCOCCOCCOCCOCCC(=O)NCC(=O)OC(C)(C)c1ccc(C(=O)Nc2cc(F)cc(-c3ncnc4[nH]c(-c5ccc(CCN6CCC7(CC6)CCN(C(=O)c6ccc(OC)c(N8CCC(=O)NC8=O)c6)CC7)cc5)cc34)c2C)c(F)c1)C(=O)O (stereo not drawn)")
"no (0)"
